Just for reference, the supplement of paper PMC10567573 is where these values come from.

B1: ZNF207 (parent)
chain: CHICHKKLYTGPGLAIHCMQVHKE

- Variants of: B1
- assay-procedure: protein stability index of a GFP-peptide fusion (GPS, HEK-293T) (PSI 1-6); higher = more stable;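 note: lentivirally expressed fusions sorted by FACS into six bins by GFP to DsRed ratio, PSI derived from sequencing read proportions per bin multiplied by bin number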
- run-parameters: c terminus: a fixed tail appended
Label Satisfied when protein stability index is at or above 3; anything below gets Not satisfied.

Before answering, review these 10 worked examples.
# mutant-code, qualitative-label
records = [
    ("K7H", "Satisfied"),
    ("Q20R", "Not satisfied"),
    ("G11E", "Satisfied"),
    ("L14S", "Satisfied"),
    ("H22G", "Not satisfied"),
    ("Y9R", "Satisfied"),
    ("K7D", "Satisfied"),
    ("C4S", "Not satisfied"),
    ("E24H", "Not satisfied"),
    ("Y9W", "Not satisfied"),
]

INPUT: protein stability index >= 3 for H2T ?
OUTPUT: Not satisfied

INPUT: protein stability index >= 3 for G13F ?
OUTPUT: Not satisfied

INPUT: protein stability index >= 3 for G13A ?
OUTPUT: Satisfied

INPUT: protein stability index >= 3 for H22I ?
OUTPUT: Not satisfied

INPUT: protein stability index >= 3 for I3D ?
OUTPUT: Not satisfied

INPUT: protein stability index >= 3 for G11Y ?
OUTPUT: Not satisfied

INPUT: protein stability index >= 3 for P12W ?
OUTPUT: Satisfied

INPUT: protein stability index >= 3 for C1K ?
OUTPUT: Not satisfied

INPUT: protein stability index >= 3 for T10L ?
OUTPUT: Not satisfied

INPUT: protein stability index >= 3 for K6W ?
OUTPUT: Not satisfied
